Where these numbers come from: patent US10052306B2

- Experimental System: NR1/NR2B (Homo sapiens (Human), UniProt Q05586+Q13224)
- Sequence (Q13224 27-1484, other chains not shown): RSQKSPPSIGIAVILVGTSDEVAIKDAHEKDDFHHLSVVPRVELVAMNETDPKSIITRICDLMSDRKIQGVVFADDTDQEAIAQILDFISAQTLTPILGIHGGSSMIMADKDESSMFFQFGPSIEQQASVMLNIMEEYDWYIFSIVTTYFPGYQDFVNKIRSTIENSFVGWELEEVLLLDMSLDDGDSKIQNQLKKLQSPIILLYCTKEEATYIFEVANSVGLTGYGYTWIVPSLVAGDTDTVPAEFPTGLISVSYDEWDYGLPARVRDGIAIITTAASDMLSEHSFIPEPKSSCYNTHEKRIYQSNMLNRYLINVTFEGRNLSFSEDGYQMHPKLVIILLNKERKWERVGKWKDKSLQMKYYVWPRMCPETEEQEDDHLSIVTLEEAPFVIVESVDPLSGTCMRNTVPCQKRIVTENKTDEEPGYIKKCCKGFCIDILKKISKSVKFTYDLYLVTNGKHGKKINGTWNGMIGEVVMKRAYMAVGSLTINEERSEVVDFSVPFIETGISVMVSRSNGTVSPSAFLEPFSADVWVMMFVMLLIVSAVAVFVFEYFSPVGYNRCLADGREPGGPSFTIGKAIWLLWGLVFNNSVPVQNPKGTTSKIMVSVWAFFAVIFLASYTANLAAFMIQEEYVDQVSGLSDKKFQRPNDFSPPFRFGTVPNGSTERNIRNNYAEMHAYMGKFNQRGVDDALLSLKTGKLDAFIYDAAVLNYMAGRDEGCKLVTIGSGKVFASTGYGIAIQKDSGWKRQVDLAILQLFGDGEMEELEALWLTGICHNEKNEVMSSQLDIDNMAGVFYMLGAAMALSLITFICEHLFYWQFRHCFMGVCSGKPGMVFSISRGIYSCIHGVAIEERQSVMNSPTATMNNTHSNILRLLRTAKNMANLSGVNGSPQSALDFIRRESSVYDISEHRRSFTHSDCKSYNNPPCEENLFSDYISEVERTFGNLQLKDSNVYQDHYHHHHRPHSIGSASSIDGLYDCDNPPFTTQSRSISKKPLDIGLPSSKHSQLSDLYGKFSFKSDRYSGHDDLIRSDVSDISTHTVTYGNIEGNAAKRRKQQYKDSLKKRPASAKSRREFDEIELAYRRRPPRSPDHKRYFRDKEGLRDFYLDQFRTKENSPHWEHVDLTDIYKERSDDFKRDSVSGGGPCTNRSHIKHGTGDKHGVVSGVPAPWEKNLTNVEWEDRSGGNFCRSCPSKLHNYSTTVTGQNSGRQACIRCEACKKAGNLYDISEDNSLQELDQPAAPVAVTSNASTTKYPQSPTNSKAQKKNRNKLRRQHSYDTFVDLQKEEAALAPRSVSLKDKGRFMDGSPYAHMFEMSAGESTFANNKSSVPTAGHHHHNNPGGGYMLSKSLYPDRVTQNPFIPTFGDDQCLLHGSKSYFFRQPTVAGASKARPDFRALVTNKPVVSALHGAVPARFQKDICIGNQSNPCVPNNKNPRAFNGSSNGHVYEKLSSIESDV
- Assay Remarks: Cell assay: FDSS Ca2+ influx inhibition in HEK293 cells expressing NR1/NR2B
- Study Conditions: Binned Activity, HEK293 cells expressing NR1/NR2B, Ca2+ influx; binned NR2B NAM IC50
Measure: IC50

Molecule | Endpoint Value
Oc1ccc(C(O)CN2C[C@@H]3C[C@@](O)(Cc4ccc(F)cc4F)C[C@@H]3C2)cc1 (mixture of isomers) [Example 245] | < 0.1 µM
Cc1cccc(NC(=O)N2C[C@@H]3C[C@@](O)(Cc4ccccc4)C[C@@H]3C2)c1 [Example 129] | > 10 µM
Oc1ccc([C@H](O)CN2C[C@@H]3C[C@@](O)(Cc4ccc(F)cc4)C[C@@H]3C2)nc1 [Example 256] | < 0.1 µM

*Q* Please respond with reported IC50 (system NR1/NR2B (Homo sapiens (Human), UniProt Q05586+Q13224)) for COc1cccc(NC(=O)N2C[C@H]3CC(Cc4ccccc4)C[C@H]3C2)c1 (stereo partly shown) [Example 294] .
*A* > 10 µM

###

- Experimental System: NR1/NR2B (Homo sapiens (Human), UniProt Q05586+Q13224)
- Assay Remarks: Cell assay: FDSS Ca2+ influx inhibition in HEK293 cells expressing NR1/NR2B
- Study Conditions: Binned Activity, HEK293 cells expressing NR1/NR2B, Ca2+ influx; binned NR2B NAM IC50
Measure: IC50

*Q* Please respond with reported IC50 (system NR1/NR2B (Homo sapiens (Human), UniProt Q05586+Q13224)) for O=C(CN1C[C@@H]2C[C@@](O)(Cc3ccccc3F)C[C@@H]2C1)c1ccc(O)cc1 [Example 225] .
*A* < 0.1 µM

*Q* Please respond with reported IC50 (system NR1/NR2B (Homo sapiens (Human), UniProt Q05586+Q13224)) for COc1ccccc1CNC(=O)N1C[C@@H]2C[C@@](O)(c3ccccc3)C[C@@H]2C1 [Example 21] .
*A* > 10 µM

###

- Experimental System: NR1/NR2B (Homo sapiens (Human), UniProt Q05586+Q13224)
- Assay Remarks: Cell assay: FDSS Ca2+ influx inhibition in HEK293 cells expressing NR1/NR2B;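 further: Fluo-8 Ca2+ signal read on Hamamatsu FDSS 6000 after glutamate, glycine and Ca2+ challenge following 10 min compound preincubation, end/baseline fluorescence ratio compared with MK801 control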
- Study Conditions: Binned Activity, HEK293 cells expressing NR1/NR2B, Ca2+ influx; binned NR2B NAM IC50
Measure: IC50

Some compounds with known IC50 results, for comparison:
Compound | Experimental System | Endpoint Value
O=C(CN1C[C@@H]2C[C@@](O)(Cc3ccccc3)C[C@@H]2C1)c1cccc(-c2cccnc2)c1 [Example 272] | NR1/NR2B (Homo sapiens (Human), UniProt Q05586+Q13224) | > 10 µM
COc1ccc(C)cc1NC(=O)N1C[C@@H]2C[C@@](O)(c3ccccc3C)C[C@@H]2C1 [Example 23] | NR1/NR2B (Homo sapiens (Human), UniProt Q05586+Q13224) | > 10 µM
COc1cccc(C[C@]2(O)C[C@H]3CN(CC(=O)c4ccc(O)c(F)n4)C[C@H]3C2)c1 [Example 200] | NR1/NR2B (Homo sapiens (Human), UniProt Q05586+Q13224) | > 10 µM

Consider the additional compound presented here.
*Q* Give me measured IC50, please, for this compound: COc1cccc(NC(=O)N2C[C@@H]3C[C@@](O)(c4cccc(OC)c4)C[C@@H]3C2)c1 [Example 18]
*A* > 10 µM
